// reported binding signal per item
- Experimental Target: GST-Nv-NF-kB (Cys allele) (Nematostella vectensis, UniProt E5G601 2-411)
- Sequence: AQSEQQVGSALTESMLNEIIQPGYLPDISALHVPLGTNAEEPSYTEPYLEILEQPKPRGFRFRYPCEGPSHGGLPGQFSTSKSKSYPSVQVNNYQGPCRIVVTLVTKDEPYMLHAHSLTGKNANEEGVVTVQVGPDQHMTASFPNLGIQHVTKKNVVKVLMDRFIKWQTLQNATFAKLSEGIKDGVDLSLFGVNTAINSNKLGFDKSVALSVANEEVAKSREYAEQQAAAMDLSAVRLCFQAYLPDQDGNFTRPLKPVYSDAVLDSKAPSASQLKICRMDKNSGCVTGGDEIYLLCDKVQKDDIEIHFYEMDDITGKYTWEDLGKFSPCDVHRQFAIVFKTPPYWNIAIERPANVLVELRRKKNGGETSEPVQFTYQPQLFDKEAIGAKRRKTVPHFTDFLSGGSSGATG
- Test Protocol: protein-binding microarray (PBM); PBM: ~300 nM protein, 6 mM HEPES pH 7.8, 80 mM KCl, 0.5 mM EDTA, 0.5 mM EGTA, 6% glycerol, 35 ng/ul poly-dIdC, 1% milk, 1 h, room temperature; high values mean tight binding
- Assay Setup: dsDNA, one strand shown
# output: bare number, implied unit z-score

The following sequences have reported results that may help.
CCGATTAACATCAGGGAATGACCTGATGTTAATCGGGTCTTGATTCGCTTGACGCTGCTG
3.16
CCGATTAACATCAAGGGTTTCCCTGATGTTAATCGGGTCTTGATTCGCTTGACGCTGCTG
4.79
CCGATTAACATCAGGGGAAAAACTGATGTTAATCGGGTCTTGATTCGCTTGACGCTGCTG
8.02

Ask: // returns reported binding signal for input CCGATTAACATCAGAGCCCCCCCTGATGTTAATCGGGTCTTGATTCGCTTGACGCTGCTG
Reply: 3.96

Ask: // returns reported binding signal for input CCGATTAACATCAGTAGTGGGGCTGATGTTAATCGGGTCTTGATTCGCTTGACGCTGCTG
Reply: 1.01

Ask: // returns reported binding signal for input CCGATTAACATCAAAAATCCCACTGATGTTAATCGGGTCTTGATTCGCTTGACGCTGCTG
Reply: 3.55

Ask: // returns reported binding signal for input CCGATTAACATCAGGGGGAGTGATGATGTTAATCGGGTCTTGATTCGCTTGACGCTGCTG
Reply: 3.63

Ask: // returns reported binding signal for input CCGATTAACATCAGAAATCTCCCTGATGTTAATCGGGTCTTGATTCGCTTGACGCTGCTG
Reply: 5.21

----------
- Experimental Target: GST-Aq-NF-kB (Amphimedon queenslandica, UniProt A9Y5G7 2-389)
- Sequence: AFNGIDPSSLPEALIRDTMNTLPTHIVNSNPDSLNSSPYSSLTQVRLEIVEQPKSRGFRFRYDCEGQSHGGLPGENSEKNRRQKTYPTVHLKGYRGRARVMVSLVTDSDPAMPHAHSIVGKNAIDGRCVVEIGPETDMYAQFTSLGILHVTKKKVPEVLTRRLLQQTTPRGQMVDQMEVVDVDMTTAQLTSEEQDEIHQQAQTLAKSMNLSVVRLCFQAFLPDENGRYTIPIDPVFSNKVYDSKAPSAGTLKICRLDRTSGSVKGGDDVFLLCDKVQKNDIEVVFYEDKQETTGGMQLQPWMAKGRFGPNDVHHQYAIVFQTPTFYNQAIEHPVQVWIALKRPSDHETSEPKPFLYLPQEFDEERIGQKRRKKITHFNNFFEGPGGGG
- Test Protocol: protein-binding microarray (PBM); PBM: ~300 nM protein, 6 mM HEPES pH 7.8, 80 mM KCl, 0.5 mM EDTA, 0.5 mM EGTA, 6% glycerol, 35 ng/ul poly-dIdC, 1% milk, 1 h, room temperature; Ap Aiptasia and Nv Nematostella (sea anemones) / Co Capsaspora / Aq Amphimedon (sponge) / Dm Drosophila / Hu human; RHD is the Rel homology domain; high values mean tight binding
- Assay Setup: dsDNA, one strand shown
// reported binding signal per item
Quote the value and follow it with the unit of measurement.

The following sequences have reported results that may help.
CCGATTAACATCAGAACCCCCCCTGATGTTAATCGGGTCTTGATTCGCTTGACGCTGCTG
5.36 z-score
CCGATTAACATCACGCAACCCCCTGATGTTAATCGGGTCTTGATTCGCTTGACGCTGCTG
3.89 z-score
CCGATTAACATCAAGGGGTTTTCTGATGTTAATCGGGTCTTGATTCGCTTGACGCTGCTG
6.95 z-score
CCGATTAACATCACCGTTTCCCCTGATGTTAATCGGGTCTTGATTCGCTTGACGCTGCTG
4.66 z-score
CCGATTAACATCAGATGGGAAAATGATGTTAATCGGGTCTTGATTCGCTTGACGCTGCTG
2.28 z-score
CCGATTAACATCACCGTGGGAAATGATGTTAATCGGGTCTTGATTCGCTTGACGCTGCTG
1.95 z-score
CCGATTAACATCAGGGGTTTACCTGATGTTAATCGGGTCTTGATTCGCTTGACGCTGCTG
6.9 z-score
CCGATTAACATCACGAGTTTCCCTGATGTTAATCGGGTCTTGATTCGCTTGACGCTGCTG
3.88 z-score

Ask: // returns reported binding signal for input CCGATTAACATCAAGGAGATTCCTGATGTTAATCGGGTCTTGATTCGCTTGACGCTGCTG
Reply: 1.73 z-score
